Listed molecules paired with reported pIC50
- tested_target: VHX (Homo sapiens)
- Sequence (Q9NRW4 whole entry): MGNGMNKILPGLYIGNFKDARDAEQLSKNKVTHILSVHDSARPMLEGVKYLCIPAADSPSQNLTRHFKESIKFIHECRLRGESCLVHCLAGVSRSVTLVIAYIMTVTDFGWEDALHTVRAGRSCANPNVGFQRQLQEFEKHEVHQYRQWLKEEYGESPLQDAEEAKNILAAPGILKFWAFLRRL
- assay_text: PTP inhibition assay (pNPP)
- Type: biochemical
- run_conditions: pNPP at Km, pH 7.0, 25° C.; read-out: IC50 VHX
pIC50: −log10 of the molar value.
assay_metric: pIC50

{"columns": ["molecule", "tested_target", "assay_metric", "result"],
 "data": [
  ["O=C(CS(=O)(=O)O)Nc1ccc2nc(C(F)(F)F)[nH]c2c1", "VHX (Homo sapiens)", "pIC50", "< 4.00"],
  ["O=C(CS(=O)(=O)O)Nc1nc2ccc([N+](=O)[O-])cc2s1", "VHX (Homo sapiens)", "pIC50", "< 4.00"],
  ["O=C(Nc1ccc(OCc2ccccc2)c(Cl)c1)C(c1ccccc1)S(=O)(=O)O (stereo not shown)", "VHX (Homo sapiens)", "pIC50", "< 4.00"],
  ["O=C(CS(=O)(=O)O)Nc1cnc2ccccc2c1", "VHX (Homo sapiens)", "pIC50", "< 4.00"],
  ["O=C(Nc1ccc(N2CCOCC2)cc1)C(c1ccccc1)S(=O)(=O)O (stereo not shown)", "VHX (Homo sapiens)", "pIC50", "< 3.70"],
  ["O=C(C(c1ccccc1)S(=O)(=O)O)N1CCC(Cc2ccccc2)CC1 (stereo not shown)", "VHX (Homo sapiens)", "pIC50", "< 3.70"],
  ["O=C(CS(=O)(=O)O)Nc1nc2ccccc2s1", "VHX (Homo sapiens)", "pIC50", "< 4.00"]
]}
